Each record here notes measured growth.
# Tested on: SK-MEL-28 melanoma
# ASSAY_REMARKS: NCI-60 one-dose screen, 48 h (100 = growth as untreated, 0 = no growth, -100 = all killed)
# EXPERIMENTAL_SETUP: 10 µM unless noted
About 83,000 compounds went through this panel and 20% of them were active in at least one assay; those are over-represented in the sample as a whole.
Give your result in % as a bare value.

Below, 5 compounds whose answers are already recorded.
COMPOUND	UNIT_NAME	growth
O=S(=O)(c1ccc(NCSc2nc3ccccc3s2)cc1)c1ccc(NCSc2nc3ccccc3s2)cc1	%	110
Nc1cc(-c2ccc(Cl)cc2)nn1-c1nc(-c2ccc(Br)cc2)cs1	%	95.3
O=C(Nc1cccc2c1C(=O)c1cccc(NC(=O)c3ccc(C(=O)Nc4cccc5c4C(=O)c4cccc(NC(=O)c6ccccc6)c4C5=O)cc3)c1C2=O)c1ccccc1	%	103
C#C[C@]1(O)CC[C@H]2[C@@H]3CC=C4c5sc(-c6cccc(C)c6)nc5CC[C@]4(C)[C@H]3CC[C@@]21C	%	55.9
N#CSCc1cc(Cl)c(CSC#N)cc1Cl	%	87.9

Recorded growth (compound `CC(=O)Oc1ccccc1C(=O)N(Cc1ccc2c(Cl)cc(Cl)c(O)c2n1)c1ccccc1` ): 58.3

The recorded growth for entry `COc1cccc(-c2nn(-c3ccccc3)cc2-c2ccnc(-c3cccnc3)c2)c1` equals 100

response.value for `CC/C(=C(/c1ccc(Cl)cc1)c1ccc(OCCN(CC)CC)cc1)c1ccc(OC)cc1` (field: growth) = 56

Quick note, growth for CCOC(=O)C1=CCC(n2cc(F)c(=O)[nH]c2=O)O1 (centres undefined) landed at 114

The measured growth associated with `NC(=O)[C@@H]1Cc2ccccc2CN1C(=O)c1ccc2c(c1)Cc1ccccc1-2` reads 116

# compound C=CCOC(=O)C1=C(C)N(CC)C(=O)N(CC)C1c1c(Cl)n(C)c2ccccc12 (centres undefined) ; its growth = 99.2

Sure, the documented growth for `CS(=O)(=O)c1ccc(/C(=N/NC(N)=S)c2ccc(F)cc2)cc1` is 114
